Hey, just so you know, these numbers are from ChEMBL document CHEMBL1128391.

Below: a set of entries, each annotated with reported Estrogenic effect.
Biological target: Estrogen receptor (Mus musculus) (UniProt O08537+P19785)
Sequence (O08537 whole entry, looked up): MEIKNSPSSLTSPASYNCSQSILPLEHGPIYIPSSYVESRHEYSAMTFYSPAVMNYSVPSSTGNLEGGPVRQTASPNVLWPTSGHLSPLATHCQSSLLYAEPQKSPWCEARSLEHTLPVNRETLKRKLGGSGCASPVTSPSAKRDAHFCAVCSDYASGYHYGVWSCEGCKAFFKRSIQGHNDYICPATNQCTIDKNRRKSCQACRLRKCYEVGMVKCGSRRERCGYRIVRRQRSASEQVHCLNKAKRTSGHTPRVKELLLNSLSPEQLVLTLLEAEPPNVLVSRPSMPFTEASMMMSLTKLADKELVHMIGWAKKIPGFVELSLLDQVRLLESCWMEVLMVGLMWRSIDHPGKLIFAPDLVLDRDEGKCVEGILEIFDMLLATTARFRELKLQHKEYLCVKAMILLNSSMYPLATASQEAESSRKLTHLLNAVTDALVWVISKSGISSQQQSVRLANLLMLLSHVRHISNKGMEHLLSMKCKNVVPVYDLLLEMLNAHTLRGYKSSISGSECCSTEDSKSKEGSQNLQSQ
Sequence (P19785 whole entry, looked up): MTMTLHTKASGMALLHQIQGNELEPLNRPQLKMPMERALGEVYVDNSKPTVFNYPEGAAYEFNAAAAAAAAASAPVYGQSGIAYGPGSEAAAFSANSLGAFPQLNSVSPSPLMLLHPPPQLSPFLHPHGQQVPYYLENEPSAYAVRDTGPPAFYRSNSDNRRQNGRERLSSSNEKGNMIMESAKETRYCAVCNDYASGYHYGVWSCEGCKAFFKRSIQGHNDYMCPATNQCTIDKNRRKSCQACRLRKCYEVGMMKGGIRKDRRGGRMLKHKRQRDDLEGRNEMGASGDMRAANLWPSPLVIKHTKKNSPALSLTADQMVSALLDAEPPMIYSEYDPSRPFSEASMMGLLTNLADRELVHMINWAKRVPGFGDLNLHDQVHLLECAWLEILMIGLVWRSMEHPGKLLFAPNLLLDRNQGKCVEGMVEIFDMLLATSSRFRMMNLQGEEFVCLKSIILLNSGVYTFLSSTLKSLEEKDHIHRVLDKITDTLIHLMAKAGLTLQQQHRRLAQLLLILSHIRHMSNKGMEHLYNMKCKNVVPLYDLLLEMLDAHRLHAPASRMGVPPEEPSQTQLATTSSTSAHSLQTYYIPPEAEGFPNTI
Assay: Estrogenic effect in uterotrophic assay in mice at 1 nM/animal dose
Format: functional

molecule: NC(CCC(N)c1c(Cl)cc(O)cc1Cl)c1c(Cl)cc(O)cc1Cl (stereo in doubt)
scaleUnit: %
Estrogenic effect: 38

molecule: CNC(CCC(NC)c1c(Cl)cc(O)cc1Cl)c1c(Cl)cc(O)cc1Cl (stereo in doubt)
scaleUnit: %
Estrogenic effect: 47

molecule: CNC(CCC(NC)c1c(Cl)cc(O)cc1Cl)c1c(Cl)cc(O)cc1Cl (racemic)
scaleUnit: %
Estrogenic effect: 0

molecule: NC(CCC(N)c1c(Cl)cc(O)cc1Cl)c1c(Cl)cc(O)cc1Cl (racemic)
scaleUnit: %
Estrogenic effect: 0

molecule: CCNC(CCC(NCC)c1c(Cl)cc(O)cc1Cl)c1c(Cl)cc(O)cc1Cl (racemic)
scaleUnit: %
Estrogenic effect: 0

molecule: CCNC(CCC(N)c1c(Cl)cc(O)cc1Cl)c1c(Cl)cc(O)cc1Cl (configuration not stated)
scaleUnit: %
Estrogenic effect: 93

molecule: CCNC(CCC(NCC)c1c(Cl)cc(O)cc1Cl)c1c(Cl)cc(O)cc1Cl (stereo in doubt)
scaleUnit: %
Estrogenic effect: 125

---

Molecular target: Estrogen receptor (Mus musculus) (UniProt O08537+P19785)
Assay: Estrogenic effect in uterotrophic assay in mice at 10 nM/animal dose
Format: functional
Estrogenic effect values for the compounds below.
quantityKind: Estrogenic effect (%)

compound: CCNC(CCC(NCC)c1c(Cl)cc(O)cc1Cl)c1c(Cl)cc(O)cc1Cl (racemic)
recordedNumber: 78
//
compound: NC(CCC(N)c1c(Cl)cc(O)cc1Cl)c1c(Cl)cc(O)cc1Cl (stereo in doubt)
recordedNumber: 135
//
compound: CNC(CCC(NC)c1c(Cl)cc(O)cc1Cl)c1c(Cl)cc(O)cc1Cl (stereo in doubt)
recordedNumber: 139
//
compound: NC(CCC(N)c1c(Cl)cc(O)cc1Cl)c1c(Cl)cc(O)cc1Cl (racemic)
recordedNumber: 13
//
compound: CCNC(CCC(N)c1c(Cl)cc(O)cc1Cl)c1c(Cl)cc(O)cc1Cl (configuration not stated)
recordedNumber: 140
//
compound: CCNC(CCC(NCC)c1c(Cl)cc(O)cc1Cl)c1c(Cl)cc(O)cc1Cl (stereo in doubt)
recordedNumber: 140
//
compound: CNC(CCC(NC)c1c(Cl)cc(O)cc1Cl)c1c(Cl)cc(O)cc1Cl (racemic)
recordedNumber: 3

---

Molecular target: Estrogen receptor (Mus musculus) (UniProt O08537+P19785)
Assay: Estrogenic effect in uterotrophic assay in mice at 100 nM/animal dose
Format: functional

compound: CNC(CCC(NC)c1c(Cl)cc(O)cc1Cl)c1c(Cl)cc(O)cc1Cl (racemic)
Estrogenic effect: 12%
--
compound: NC(CCC(N)c1c(Cl)cc(O)cc1Cl)c1c(Cl)cc(O)cc1Cl (racemic)
Estrogenic effect: 10%
--
compound: NC(CCC(N)c1c(Cl)cc(O)cc1Cl)c1c(Cl)cc(O)cc1Cl (stereo in doubt)
Estrogenic effect: 100%
--
compound: CNC(CCC(NC)c1c(Cl)cc(O)cc1Cl)c1c(Cl)cc(O)cc1Cl (stereo in doubt)
Estrogenic effect: 127%
--
compound: CCNC(CCC(NCC)c1c(Cl)cc(O)cc1Cl)c1c(Cl)cc(O)cc1Cl (racemic)
Estrogenic effect: 142%
--
compound: CCNC(CCC(N)c1c(Cl)cc(O)cc1Cl)c1c(Cl)cc(O)cc1Cl (configuration not stated)
Estrogenic effect: 156%
--
compound: CCNC(CCC(NCC)c1c(Cl)cc(O)cc1Cl)c1c(Cl)cc(O)cc1Cl (stereo in doubt)
Estrogenic effect: 128%
